Provenance of the data: patent US9850283B2

Below, each entry is listed alongside its reported IC50.
# measurement target: LK35.2-hPD-L1 cells / PE-labeled PD-1-Ig (Homo sapiens)
# Construct: expressed in transfected cells; host or cells: LK35.2 mouse B cell line
# Sequence (Q9NZQ7 19-290): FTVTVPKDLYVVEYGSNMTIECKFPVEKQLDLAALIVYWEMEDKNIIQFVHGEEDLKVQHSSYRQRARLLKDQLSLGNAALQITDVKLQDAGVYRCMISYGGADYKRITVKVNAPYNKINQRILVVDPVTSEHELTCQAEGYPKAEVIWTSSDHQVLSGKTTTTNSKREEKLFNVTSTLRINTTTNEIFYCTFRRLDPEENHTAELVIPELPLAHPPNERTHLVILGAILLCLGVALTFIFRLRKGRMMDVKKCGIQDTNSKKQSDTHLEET
# experimental details: LK35.2-hPD-L1 cell binding high-content screening assay
# Type: cell-based
# condition info: cluster symbol; cell line of CBA not given (LK35.2-hPD-L1 or 293T-hPD-L1); read-out: CBA IC50 cluster
Positions of bridges follow the written chain, without caps; N, C: chain ends. Non-standard residues stand in square brackets, D forms with d. Residues, ends and D or L forms follow the SMILES beside them. ξ: configuration not given here. NMeNle = CCCC[C@H](NC)C(=O)O; ξY = NC(Cc1ccc(O)cc1)C(=O)O; NMeA = CN[C@@H](C)C(=O)O; Dap = NC[C@H](N)C(=O)O; ξP = O=C(O)C1CCCN1; Sar = CNCC(=O)O

| compound | measurement |
| --- | --- |
| CCCC[C@H]1C(=O)N(C)[C@@H](CCCC)C(=O)N[C@@H](CCCNC(=N)N)C(=O)N[C@H](C(=O)NCC(N)=O)CSCC(=O)N[C@@H](Cc2ccccc2)C(=O)N(C)[C@@H](C)C(=O)N[C@@H](CC(N)=O)C(=O)N2CCC[C@H]2C(=O)N[C@@H](CC(=O)O)C(=O)N[C@@H](CC(C)C)C(=O)N(C)CC(=O)N[C@@H](Cc2c[nH]c3ccccc23)C(=O)N[C@@H](CO)C(=O)N[C@@H](Cc2c[nH]c3ccccc23)C(=O)N1C [Example 1064] ({CH2CO}-F[NMeA]NPDL[Sar]WSW[NMeNle][NMeNle]RCG-NH2; thioether N-14) | > 74.3 nM |

Let us examine a further case.
Consider the compound shown here: CCCC[C@H]1C(=O)N(C)[C@@H](CCCC)C(=O)N[C@@H](CCCNC(=N)N)C(=O)N[C@H](C(=O)NCC(N)=O)CSCC(=O)NC(Cc2ccc(O)cc2)C(=O)N(C)[C@@H](C)C(=O)N[C@@H](CC(N)=O)C(=O)N2CCCC2C(=O)N[C@@H](CN)C(=O)N[C@@H](CCC(=O)O)C(=O)N2CCC[C@H]2C(=O)N[C@@H](Cc2c[nH]c3ccccc23)C(=O)N[C@@H](CO)C(=O)N[C@@H](Cc2c[nH]c3ccccc23)C(=O)N1C (some centres unmarked) [Example 1091] ({CH2CO}-[ξY][NMeA]N[ξP][Dap]EPWSW[NMeNle][NMeNle]RCG-NH2; thioether N-14) What is its recorded IC50?
0.158 to 4.71 nM

----------
// values below are reported IC50
# measurement target: Human PD-L1/PD-1 (Homo sapiens)
# Construct: made in house; host or cells: HEK293T
# Sequence (Q9NZQ7 with tags, fused parts or gaps): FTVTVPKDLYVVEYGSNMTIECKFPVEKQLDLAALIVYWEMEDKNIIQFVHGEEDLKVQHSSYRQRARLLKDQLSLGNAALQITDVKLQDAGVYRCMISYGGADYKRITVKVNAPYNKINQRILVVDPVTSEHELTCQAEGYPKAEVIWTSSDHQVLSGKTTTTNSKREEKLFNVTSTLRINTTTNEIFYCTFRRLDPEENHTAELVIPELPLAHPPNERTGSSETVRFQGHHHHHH
# experimental details: HTRF PD-1-Ig/PD-L1-His binding assay (human PD-L1)
# condition info: cluster symbol; read-out: HTRF IC50 cluster
Positions of bridges follow the written chain, without caps; N, C: chain ends. Non-standard residues stand in square brackets, D forms with d. Residues, ends and D or L forms follow the SMILES beside them. ξ: configuration not given here. Phe(3,4-(OMe)2) = COc1ccc(C[C@H](N)C(=O)O)cc1OC; 2Nal = N[C@@H](Cc1ccc2ccccc2c1)C(=O)O; Bta = N[C@@H](Cc1csc2ccccc12)C(=O)O; cisHyp = O=C(O)[C@@H]1C[C@H](O)CN1; Hyp = O=C(O)[C@@H]1C[C@@H](O)CN1; NMeF = CN[C@@H](Cc1ccccc1)C(=O)O; NMeNle = CCCC[C@H](NC)C(=O)O; NMeA = CN[C@@H](C)C(=O)O; Orn = NCCC[C@H](N)C(=O)O; Dab = NCC[C@H](N)C(=O)O; ξC = NC(CS)C(=O)O; Sar = CNCC(=O)O

| compound | IC50 |
| --- | --- |
| CCCC[C@H]1C(=O)N[C@@H](C)C(=O)NC(C(=O)NCC(N)=O)CSCC(=O)N[C@@H](Cc2ccc(O)cc2)C(=O)N(C)[C@@H](C)C(=O)N[C@@H](CC(N)=O)C(=O)N2CCC[C@H]2C(=O)N[C@@H](CN)C(=O)N[C@@H](CC(C)C)C(=O)N2C[C@H](O)C[C@H]2C(=O)N[C@@H](Cc2c[nH]c3ccccc23)C(=O)N[C@@H](CO)C(=O)N[C@@H](Cc2c[nH]c3ccccc23)C(=O)N(C)[C@@H](CCSC)C(=O)N1C (some centres unmarked) [Example 9095] | 0.385 to 6.74 nM |
| CCCC[C@H]1C(=O)N(C)[C@@H](CCCC)C(=O)N[C@@H](CCCNC(=N)N)C(=O)N[C@H](C(=O)NCC(N)=O)CSCC(=O)N[C@@H](Cc2ccc(O)cc2)C(=O)N(C)[C@@H](C)C(=O)N[C@@H](CCCN)C(=O)N2CCC[C@H]2C(=O)N[C@@H](C)C(=O)N[C@@H](CC(C)C)C(=O)N2C[C@@H](O)C[C@H]2C(=O)N[C@@H](Cc2c[nH]c3ccccc23)C(=O)N[C@@H](CO)C(=O)N[C@@H](Cc2c[nH]c3ccccc23)C(=O)N1C [Example 1146] ({CH2CO}-Y[NMeA][Orn]PAL[cisHyp]WSW[NMeNle][NMeNle]RCG-NH2; thioether N-14) | 6.76 to 30.3 nM |
| CCCC[C@H]1C(=O)N(C)[C@@H](CCCC)C(=O)N[C@@H](CCCNC(=N)N)C(=O)N[C@H](C(=O)NCC(N)=O)CSCC(=O)N[C@@H](Cc2ccc(O)cc2)C(=O)N(C)[C@@H](C)C(=O)N[C@@H](CCN)C(=O)N2CCC[C@H]2C(=O)N[C@@H](CO)C(=O)N[C@@H](CCC(=O)O)C(=O)N2C[C@H](O)C[C@H]2C(=O)N[C@@H](Cc2c[nH]c3ccccc23)C(=O)N[C@@H](CO)C(=O)N[C@@H](Cc2c[nH]c3ccccc23)C(=O)N1C [Example 5130] ({CH2CO}-Y[NMeA][Dab]PSE[Hyp]WSW[NMeNle][NMeNle]RCG-NH2; thioether N-14) | 6.76 to 30.3 nM |
| CCCC[C@H]1C(=O)N(C)[C@@H](CCCC)C(=O)N[C@@H](CC(C)C)C(=O)N[C@H](C(=O)NCC(N)=O)CSCC(=O)N[C@@H](Cc2ccc(O)cc2)C(=O)N(C)[C@@H](C)C(=O)N[C@@H](CC(N)=O)C(=O)N2CCC[C@H]2C(=O)N[C@@H](Cc2cnc[nH]2)C(=O)N[C@@H](CC(C)C)C(=O)N2C[C@H](O)C[C@H]2C(=O)N[C@@H](Cc2c[nH]c3ccccc23)C(=O)N[C@@H](CO)C(=O)N[C@@H](Cc2c[nH]c3ccccc23)C(=O)N1C [Example 6025] | 0.385 to 6.74 nM |
| CCCC[C@@H]1C(=O)N(C)[C@H](CCCC)C(=O)N[C@@H](CCCN)C(=O)N[C@@H](C(=O)NCC(N)=O)CSCC(=O)N[C@@H](Cc2ccc(O)cc2)C(=O)N2CCNCC2C(=O)N[C@H](CC(N)=O)C(=O)N2CCC[C@H]2C(=O)N[C@H](Cc2c[nH]cn2)C(=O)N[C@@H](CC(C)C)C(=O)N2C[C@H](O)CC2C(=O)N[C@H](Cc2c[nH]c3ccccc23)C(=O)N[C@@H](CO)C(=O)N[C@@H](Cc2c[nH]c3ccccc23)C(=O)N1C (some centres unmarked) [Example 1220] | 6.76 to 30.3 nM |

Which IC50 value belongs to CCCC[C@H]1C(=O)N(C)CC(=O)N[C@@H](CC(=O)O)C(=O)N[C@@H](C(C)C)C(=O)N(C)[C@@H](Cc2ccccc2)C(=O)N[C@@H](Cc2ccc(O)cc2)C(=O)N(C)CC(=O)N[C@@H](Cc2c[nH]c3ccccc23)C(=O)N[C@@H](Cc2ccc(OC)c(OC)c2)C(=O)N[C@@H](CC(C)C)C(=O)N[C@H](C(=O)NCC(N)=O)CSCC(=O)N[C@@H](Cc2ccccc2)C(=O)N(C)[C@@H](Cc2ccccc2)C(=O)N1C [Example 3541] ({CH2CO}-F[NMeF][NMeNle][Sar]DV[NMeF]Y[Sar]W[Phe(3,4-(OMe)2)]LCG-NH2; thioether N-13) ?
> 30.5 nM

Requested read-out: IC50. Entry: CCCC[C@H]1C(=O)N(C)CC(=O)N[C@@H](CC(=O)O)C(=O)N[C@@H](C(C)C)C(=O)N(C)[C@@H](Cc2ccccc2)C(=O)N[C@@H](Cc2ccc3ccccc3c2)C(=O)N(C)CC(=O)N[C@@H](Cc2c[nH]c3ccccc23)C(=O)N[C@@H](Cc2ccc(O)cc2)C(=O)N[C@@H](CC(C)C)C(=O)N[C@H](C(=O)NCC(N)=O)CSCC(=O)N[C@@H](Cc2ccccc2)C(=O)N(C)[C@@H](Cc2ccccc2)C(=O)N1C [Example 3535] ({CH2CO}-F[NMeF][NMeNle][Sar]DV[NMeF][2Nal][Sar]WYLCG-NH2; thioether N-13)
> 30.5 nM

Please give the measured IC50 for this compound: CCCC[C@H]1C(=O)N(C)[C@@H](C)C(=O)N[C@@H](CCCNC(=N)N)C(=O)NC(C(=O)NCC(N)=O)CSCC(=O)N[C@@H](Cc2ccc(O)cc2)C(=O)N(C)[C@@H](C)C(=O)N[C@@H](CC(N)=O)C(=O)N2CCC[C@H]2C(=O)N[C@@H](Cc2cnc[nH]2)C(=O)N[C@@H](CC(C)C)C(=O)N2C[C@H](O)C[C@H]2C(=O)N[C@@H](Cc2c[nH]c3ccccc23)C(=O)N[C@@H](CO)C(=O)N[C@@H](Cc2csc3ccccc23)C(=O)N1C (some centres unmarked) [Example 9058] ({CH2CO}-Y[NMeA]NPHL[Hyp]WS[Bta][NMeNle][NMeA]R[ξC]G-NH2; thioether N-14)
0.385 to 6.74 nM
